Test system: HT29 colon
method-notes: NCI tumour cell line growth inhibition, 48 h; in the data active = GI50 below about 0.43 µM; inactive = the rest
Response enum: class 1 (active), class 0 (inactive)

Use the examples below as a reference point.
>>> group_label("COc1cc2c(cc1OCCCCCN1CCN(c3ncnc4ccccc34)CC1)N=CC1CCCN1C2=O (centres undefined)")
"class 1"
>>> group_label("C[C@H](CCOc1cccc(CC(=O)O)c1)N(Cc1cccc(C(F)(F)F)c1Cl)CC(c1ccccc1)c1ccccc1")
"class 0"
>>> group_label("CNCCCNc1ccnc2cc(Cl)ccc12")
"class 0"

Which outcome was entered for the molecule CC[C@]1(O)C[C@H]2CN(CCc3c([nH]c4ccccc34)C(C(=O)OC)(c3cc4c(cc3OC)N(C)[C@H]3[C@@](O)(C(=O)OC)[C@H](OC(C)=O)[C@]5(CC)[C@@H]6C[C@@H]6CN6CC[C@]43[C@@H]65)C2)C1 (some centres undefined) in this test? class 1

* * *

Known TGI of a selection of compounds
System: A549 NSCLC
method-notes: NCI tumour cell line growth inhibition, 48 h
Where a SMILES comes first, the peptide text is derived from it. [ ]: non-standard residue; d: D form. The star is where a group is joined. Cbz = O=C(OCc1ccccc1)*; Aib = CC(C)(N)C(=O)O; OBn = c1ccc(CO*)cc1

Illustrative cases are given below, each with its answer.
>>> endpoint_value("COc1cccc2c1O/C(=C\\c1ccc([N+](=O)[O-])s1)C2=O")
"> 100 µM"
>>> endpoint_value("CC(C)(CO)CNc1nc(N)nc(Cl)c1/C=N/O")
"> 100 µM"
>>> endpoint_value("C=C(CN(C)C)C(=O)c1ccc(C(=O)C(=C)CN(C)C)cc1")
"> 100 µM"

GET /values?readout=TGI&item= `COc1cc(C=O)ccc1O` > 100 µM

Now give it for `Clc1ccc(C=NC23CC4CC(CC(C4)C2)C3)c(Cl)c1` too. > 10 µM

Try this compound next: `COc1ccc(/C=C\c2cc(OC)c(OC)c(OC)c2)cc1OCC(=O)O` > 100 µM

Same question for `O=c1[nH]c(-c2cccc(F)c2)cc2cc(F)ccc12` please. > 100 µM

Same question, CCOC(=O)C(NC(=O)CC)(N1CCN(c2cc3c(cc2F)c(=O)c(C(=O)O)cn3C2CC2)CC1)C(F)(F)F (centres undefined) this time > 100 µM

Further, for C=CC12CCN(CC1)C(C(O)c1ccnc3ccc(OC)cc13)C2 (centres undefined) ? > 100 µM

# iterate: `CCCCCCCCc1cc2c(O)c(c1)Cc1cc(CCCCCCCC)cc(c1O)Cc1cc(CCCCCCCC)cc(c1O)Cc1cc(CCCCCCCC)cc(c1O)Cc1cc(CCCCCCCC)cc(c1O)Cc1cc(CCCCCCCC)cc(c1O)C2` > 100 µM

Param item: `CN1Cc2c(nc(-c3ccccc3)c[n+]2[O-])N(C)C1` > 100 µM

Would you mind doing CC(NC(=O)C(C)(C)NC(=O)C(CC(=O)OCc1ccccc1)NC(=O)OCc1ccccc1)C(N)=O (centres undefined) (Cbz-Asp(OBn)-[Aib]-Ala-NH2; configuration not given here) as well? > 100 µM

Then `Cc1nc2c(N)ncnc2o1` ? > 100 µM

Could you do the same for `c1ccc(C(C(=Nc2ccc(Cc3ccc(N=C(C(c4ccccc4)c4ccccc4)N4CC4)cc3)cc2)N2CC2)c2ccccc2)cc1` , please? 22.3 µM

Next: `COc1ccc(-c2nc3ccccc3c(=S)n2OC(C)=O)cc1` > 25 µM

Subsequent entry: CC1OC(O[C@H]2C3C=CO[C@@H](OC4OC(CO)C(O)C(O)C4O)C3[C@@]3(COC(=O)/C=C/c4ccccc4)O[C@@H]23)C(O)C(O)C1O (some centres undefined) > 100 µM

Same again, this time with `CN1CCN(Cc2cc3c(nn2)-c2ccccc2C3=O)CC1` > 100 µM

What about this compound? `C=C(C)[C@H]1C2=CC(C(=O)OC)=C(C[C@H](C(=C)C)[C@@H](O)[C@@H](O)C3=C[C@H]1OC3=O)O2` > 100 µM

Try this compound next: `COc1cc2c3c(n(C)c(=O)c2cc1OC)-c1cc2c(cc1C3=O)OCO2` > 100 µM

And what about the compound `Cc1c2c(c(C)n1-c1ccccc1)C(=O)N(CCN1CCN(c3cccc(C(F)(F)F)c3)CC1)C2=O` ? > 100 µM

Entry to check: `Cn1ncc2c(NCc3ccccc3)ncnc21` > 100 µM

And for CSc1nc2c(c(N(C)C)n1)C(O)n1c(nc3ccccc31)S2 (centres undefined) ? > 100 µM

* * *

Tested on: SK-MEL-28 melanoma
method-notes: NCI tumour cell line growth inhibition, 48 h
Where a SMILES comes first, the peptide text is derived from it. [ ]: non-standard residue; d: D form. The star is where a group is joined. Cbz = O=C(OCc1ccccc1)*; Aib = CC(C)(N)C(=O)O; OBn = c1ccc(CO*)cc1
result-type: TGI

Example compounds with recorded TGI:
>>> endpoint_value("CC(=O)N/C(=C\\c1ccccc1/C=C(\\NC(C)=O)c1nc2cc(C)c(C)cc2[nH]1)c1nc2cc(C)c(C)cc2[nH]1")
"48.8 µM"
>>> endpoint_value("C=C(CN(C)C)C(=O)c1ccc(C(=O)C(=C)CN(C)C)cc1")
"> 100 µM"
>>> endpoint_value("COc1cc2c(cc1OCCCCCN1CCN(c3ncnc4ccccc34)CC1)N=CC1CCCN1C2=O (stereo not given)")
"0.0569 µM"
>>> endpoint_value("O=C(CCSC1=NCCCN1)c1ccc(F)cc1")
"34.6 µM"
>>> endpoint_value("CC(C)Oc1cccc(N2C(=NCc3c[nH]c4ccccc34)Nc3ccncc3S2(=O)=O)c1")
"> 100 µM"
>>> endpoint_value("O=C(CN1C(=O)CC(c2ccccc2)(c2ccccc2)C1=O)N1CCN(CCO)CC1")
"> 100 µM"
>>> endpoint_value("O=C1c2cccc3cccc(c23)C(=O)N1CCN(CCO)CCO")
"> 100 µM"
>>> endpoint_value("CC(C)(C)N=C(N)NC#N")
"> 100 µM"
>>> endpoint_value("C=C(C)CNCCN")
"> 100 µM"
>>> endpoint_value("CC1=C(C(=O)Nc2ccccc2)C(c2ccc(Cl)c(Cl)c2)C(C(=O)Nc2ccccc2)=C(C)N1")
"25.7 µM"

Any idea what TGI came out for CC(NC(=O)C(C)(C)NC(=O)C(CC(=O)OCc1ccccc1)NC(=O)OCc1ccccc1)C(N)=O (stereo not given) (Cbz-Asp(OBn)-[Aib]-Ala-NH2; configuration not given here) on SK-MEL-28 melanoma? > 100 µM

* * *

System: SF-268 CNS
method-notes: NCI tumour cell line growth inhibition, 48 h
result-type: TGI

// solved cases for TGI follow
>>> endpoint_value("C[C@H](CCOc1cccc(CC(=O)O)c1)N(Cc1cccc(C(F)(F)F)c1Cl)CC(c1ccccc1)c1ccccc1")
"20.3 µM"
>>> endpoint_value("CN1CC[C@]2(c3cccc(O)c3)CC(=O)/C(=C/c3ccccc3)[C@@H]1C2")
"10.4 µM"
>>> endpoint_value("COc1ccc(CC(N)=O)cc1OC")
"> 1250 µM"
>>> endpoint_value("CC(C)(C)c1ccc2c(c1)C#Cc1cc3c(cc1OCCCO2)C#Cc1cc(C(C)(C)C)ccc1OCCCO3")
"> 100 µM"

Moving on to another compound below.
Enter reported TGI observed with SF-268 CNS for COC(=O)/C=C/c1cc(OC(C)=O)c2c(c1)C(C(=O)OC)C(c1ccc(OC(C)=O)c(OC(C)=O)c1)O2 (stereo not drawn) > 100 µM

* * *

Measured GI50 by item
System: OVCAR-5 ovarian
method-notes: NCI tumour cell line growth inhibition, 48 h
Where a SMILES comes first, the peptide text is derived from it. The star is where a group is joined. Palmitoyl = CCCCCCCCCCCCCCCC(=O)*

These solved cases illustrate the format of a correct answer.
>>> endpoint_value("COC(=O)C1=CN(CC2=CC(=O)C(C)=CC2=O)C=C(C(=O)OC)C1c1ccccc1OC")
"19.7 µM"
>>> endpoint_value("CCSc1nc(N=Cc2ccccc2O)c2cn[nH]c2n1")
"21.1 µM"

# input molecule: `COc1ccc(Cl)cc1NC(=O)c1ccc(NC2=C(Cl)C(=O)N(Cc3ccccc3)C2=O)cc1` ; wanted: its GI50 > 100 µM

Same question for `COc1ccc(CNc2c3ccccc3nc3ccccc23)cc1F` please. 3.52 µM

Try the molecule `NCCCn1c2c(c3ccc([N+](=O)[O-])cc3c1=O)C(=O)c1cc(I)ccc1-2` 0.556 µM

Please answer likewise for CCCCCCCCCCCCCCCC(=O)N1CCCC1C(=O)NCC(=O)NC(Cc1ccccc1)C(=O)N1CCCC1C(=O)NC(CO)C(=O)NC(Cc1ccc(O)cc1)C(=O)NC(CCCCN)C(=O)NC(CC(C)C)C(=O)NC(CCCN=C(N)N)C(=O)N1CCCC1C(=O)NCC(N)=O (centres undefined) (Palmitoyl-PGFPSYKLRPG-NH2; configuration not given here) 17.1 µM

Lookup `O=c1cccc(C#CC#C[C@@H]2O[C@H]2CO)o1` 0.49 µM

Okay, and `CNCCCNc1ccnc2cc(Cl)ccc12` ? 21.1 µM

Moving on to the next molecule: `CCOC(=O)Nc1c(C)nc2ccccn12` > 100 µM
